Tested System: mUSP18 (Mus musculus, UniProt Q9WTV6)
Construct: (46-368); His-tag (N); made in house
Assay Info: High-throughput screening, ISG15ct-RhoMP, single dose 1.25 µM
Type: biochemical, murine
Condition Details: mUSP18 %inhibition; carboxylic acid (CA) building block alone; read-out: %inh CA only
The entries below are paired with their reported inhibition at 1.25 µM.

Compound	Unit String	inhibition at 1.25 µM
O=C(O)c1cc(COc2ccc(F)cc2F)on1 [CA417]	%	-8.45
O=C(O)c1ccc(-n2ncc(Cl)c(Cl)c2=O)cc1 [CA186]	%	20.6
O=C(O)CCc1ccc(O)cc1 [CA051]	%	-3.68
O=C(O)c1cnn(-c2ccc(C(F)(F)F)cc2)c1 [CA396]	%	-5.61
Cc1nc(-c2c[nH]c(C(=O)O)c2)cs1 [CA245]	%	19.9
Cn1cc(-c2cc[nH]n2)c(C(=O)O)n1 [CA271]	%	1
O=C(O)C1CCCCN1S(=O)(=O)c1ccc(Br)s1 (centres unmarked) [CA459]	%	-0.93
COCC1CCN(c2ccc(C(=O)O)cc2)C1 (centres unmarked) [CA313]	%	2.9
CC(=O)Oc1ccccc1C(=O)O [CA071]	%	-4.57
O=C(O)CC1=NN(c2cccc(Cl)c2)C(=O)C1 [CA345]	%	2
O=C(O)c1ccc2c(c1)OCO2 [CA083]	%	-4.98
O=C(O)c1ccc(-n2cccn2)cc1 [CA287]	%	1.15
Cc1nn(C2CCOCC2)c(C)c1C(=O)O [CA219]	%	7.18
O=C(O)c1ccc(OCc2cccnc2)cc1 [CA399]	%	-10.1

---

Tested System: mUSP18 (Mus musculus)
Construct: (46-368); His-tag (N); made in house
Sequence (Q9WTV6 46-368): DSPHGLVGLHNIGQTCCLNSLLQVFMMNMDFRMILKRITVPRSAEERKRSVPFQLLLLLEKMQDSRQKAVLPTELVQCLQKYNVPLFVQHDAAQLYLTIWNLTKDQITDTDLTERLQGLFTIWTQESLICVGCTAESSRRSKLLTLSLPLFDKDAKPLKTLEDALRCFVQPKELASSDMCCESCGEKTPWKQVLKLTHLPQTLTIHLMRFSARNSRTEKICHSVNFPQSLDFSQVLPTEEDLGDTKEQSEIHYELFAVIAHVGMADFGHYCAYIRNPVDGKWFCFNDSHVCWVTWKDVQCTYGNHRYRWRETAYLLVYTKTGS
Assay Info: High-throughput screening, ISG15ct-RhoMP, single dose 1.25 µM
Format: biochemical, murine
Condition Details: mUSP18 %inhibition; carboxylic acid (CA) building block alone; read-out: %inh CA only
Result Type: inhibition at 1.25 µM (%)

Entry Smiles	Unit String	Recorded Value
O=C(O)Cc1cc(-c2ccccc2)on1	%	21.6
O=C(O)c1cnn(-c2cccc(Br)c2)c1	%	7.83
O=C(O)Cc1cnn(-c2ccccc2)c1	%	1.32

---

Tested System: mUSP18 (Mus musculus)
Construct: (46-368); His-tag (N); made in house
Assay Info: High-throughput screening, ISG15ct-RhoMP, single dose 1.25 µM
Type: biochemical, murine
Condition Details: mUSP18 %inhibition; carboxylic acid (CA) with coupling reagents DIC/HOBT; read-out: %inh CA + DIC/HOBT

Molecule	Tested System	Unit String	inhibition at 1.25 µM
O=Cc1ccc(O)c(C(=O)O)c1 [CA040]	mUSP18 (Mus musculus)	%	-7.73
Cc1ncsc1C(=O)N(C)c1ccccc1C(=O)O [CA390]	mUSP18 (Mus musculus)	%	-4.7
COc1ccccc1-c1nnc(CC(=O)O)o1 [CA162]	mUSP18 (Mus musculus)	%	4.62
O=C(O)c1ccc(OCn2cc(Cl)cn2)cc1 [CA231]	mUSP18 (Mus musculus)	%	6.49
O=C(O)C(=O)N1CCN(c2ccccc2)CC1 [CA261]	mUSP18 (Mus musculus)	%	2.36
O=C(O)CC(NS(=O)(=O)c1ccccc1)c1ccc(Cl)cc1 (centres unmarked) [CA138]	mUSP18 (Mus musculus)	%	5.42
O=C(O)CCCCBr [CA023]	mUSP18 (Mus musculus)	%	-14.3
O=C(O)c1cc(OCc2ccccc2)ccn1 [CA150]	mUSP18 (Mus musculus)	%	5.95
O=C(O)CCc1ccccc1 [CA072]	mUSP18 (Mus musculus)	%	-13.3
CC(=O)N1CCN(S(=O)(=O)c2cccc(C(=O)O)c2)CC1 [CA418]	mUSP18 (Mus musculus)	%	-2.55
O=C(O)Cc1csc(COc2ccc(Cl)cc2)n1 [CA097]	mUSP18 (Mus musculus)	%	12.5
O=C(O)c1cccn1Cc1ccccn1 [CA414]	mUSP18 (Mus musculus)	%	-9
O=C(O)c1csc(-c2ccc(Br)s2)n1 [CA292]	mUSP18 (Mus musculus)	%	1.42
O=C1CC(C(=O)O)NC(=O)N1 (centres unmarked) [CA075]	mUSP18 (Mus musculus)	%	-15.1
CN(CC1CC1)c1ccc(C(F)(F)F)cc1C(=O)O [CA386]	mUSP18 (Mus musculus)	%	-7.62
Cc1cc(COc2ccc(C(=O)O)cc2Br)no1 [CA257]	mUSP18 (Mus musculus)	%	15.8
CN1CCN(c2ccccc2C(=O)O)CC1 [CA101]	mUSP18 (Mus musculus)	%	12.2

These measurements were taken from paper PMC12668310.
